Source of measurements: patent US4797362A

System: alkaline protease Yb (enzyme Yb) produced by Bacillus sp. Y (FERM BP-1029)
Assay type: biochemical
Numbered stars: 1 amine (or outer) side, 2 acyl side, 3 side chain; on linkers, the order of the positions; unused ones are H or OH. Peptide text beside a SMILES is read from it. CO = O=C([*:1])[*:2]
readout: Inhibition of enzyme Yb (in words)

O=C(O)c1cc[c]([Hg][Cl])cc1: not inhibited
CC(C)[C@H](NC(=O)[C@H](CCCNC(=N)N)NC(=O)N[C@@H](Cc1ccccc1)C(=O)O)C(=O)N[C@H](C=O)CCCNC(=N)N [Antipain] ({Phe-CO}-Arg-Val-Arg-aldehyde): not inhibited
O=C(O)CN(CCN(CC(=O)O)CC(=O)O)CC(=O)O: not inhibited
